Each entry below lists one item and its recorded pIC50 value.
- target: UniProt P04150
- Sequence (P04150 whole entry): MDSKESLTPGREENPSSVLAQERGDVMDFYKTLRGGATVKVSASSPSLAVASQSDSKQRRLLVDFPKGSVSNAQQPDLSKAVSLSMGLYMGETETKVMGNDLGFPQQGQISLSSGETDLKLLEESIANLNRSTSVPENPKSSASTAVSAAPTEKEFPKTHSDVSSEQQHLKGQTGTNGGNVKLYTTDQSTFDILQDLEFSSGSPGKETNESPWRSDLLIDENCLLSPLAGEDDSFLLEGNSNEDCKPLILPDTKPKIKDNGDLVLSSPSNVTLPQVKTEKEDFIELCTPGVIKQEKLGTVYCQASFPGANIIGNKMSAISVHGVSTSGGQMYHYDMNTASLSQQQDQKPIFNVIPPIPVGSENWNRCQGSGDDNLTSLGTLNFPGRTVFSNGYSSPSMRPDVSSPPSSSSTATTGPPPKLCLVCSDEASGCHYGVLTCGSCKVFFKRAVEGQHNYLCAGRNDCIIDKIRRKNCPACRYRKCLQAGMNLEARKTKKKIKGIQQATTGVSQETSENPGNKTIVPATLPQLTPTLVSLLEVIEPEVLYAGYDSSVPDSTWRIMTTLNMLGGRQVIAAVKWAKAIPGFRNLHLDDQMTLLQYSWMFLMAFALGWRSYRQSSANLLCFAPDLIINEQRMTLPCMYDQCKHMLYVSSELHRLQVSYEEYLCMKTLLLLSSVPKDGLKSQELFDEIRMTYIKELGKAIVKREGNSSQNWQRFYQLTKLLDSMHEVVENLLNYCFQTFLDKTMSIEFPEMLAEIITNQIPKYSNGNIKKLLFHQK
- assay: Transrepression activity at glucocorticoid receptor in human THP1 cells assessed as receptor-mediated anti-inflammatory activity by measuring inhibition of LPS-induced IL-8 production
- Format: cell-based
Scale note: pIC50 = -log10(concentration in M).

As a guide, the following entries are already answered.
{"compound": "CC1(C)C[C@](O)(C(F)(F)F)[C@@H](Nc2cccc3[nH]c(=O)ccc23)c2ccc(F)c(O)c21", "pIC50": 7.80}
{"compound": "Cc1ccc2c(N[C@H]3c4ccc(F)c(O)c4[C@H](C)C[C@]3(O)C(F)(F)F)cccc2n1", "pIC50": 7.70}
{"compound": "CC[C@@H]1C[C@](O)(C(F)(F)F)[C@@H](Nc2cc(F)cc3nc(C)ncc23)c2ccc(F)c(O)c21", "pIC50": 8.20}

Query compound follows.
QUERY: I would be grateful if you could share the reported pIC50 for CC1(C)C[C@](O)(C(F)(F)F)[C@@H](Nc2cccc3c(=O)[nH]ccc23)c2ccc(F)c(O)c21 (racemic) .
RESULT: 8.20

###

Each entry below lists one item and its recorded remaining at 0.5 h value.
- assay: Stability in human liver microsomes assessed as drug recovery after 30 mins
- Format: ADME, microsome
- condition-parameters: read-out: Drug recovery
Numeric only. Scale: %

{"compound": "CC1(C)C[C@](O)(C(F)(F)F)[C@@H](Nc2cccc3c(=O)[nH]ccc23)c2ccc(F)c(O)c21 (racemic)", "unit-info": "%", "remaining at 0.5 h": 48}
{"compound": "CC(C)(CC(O)(CNc1cccc2c(=O)[nH]ccc12)C(F)(F)F)c1cccc(F)c1O (stereo not given)", "unit-info": "%", "remaining at 0.5 h": 13}
{"compound": "CC[C@@H]1C[C@](O)(C(F)(F)F)[C@@H](Nc2cccc3nc(C)ccc23)c2ccc(F)c(O)c21", "unit-info": "%", "remaining at 0.5 h": 86}
{"compound": "Cc1ccc2c(NCC(O)(CC(C)(C)c3cc(F)ccc3O)C(F)(F)F)cccc2n1 (stereo not given)", "unit-info": "%", "remaining at 0.5 h": 31}

Query compound follows.
QUERY: I would be grateful if you could share the reported remaining at 0.5 h for CC[C@@H]1C[C@](O)(C(F)(F)F)[C@@H](Nc2cc(F)cc3nc(C)ncc23)c2ccc(F)c(O)c21 .
RESULT: 98
